Just for reference, patent US20250154198A1 is where these values come from.

In this section we review reported IC50 (pSTAT3) values for a set of binders.
Biological target: T1, human IL-23R endogenously expressed on DB cells (CRL-2289) (human, UniProt Q5VWK5 24-629)
T1 sequence (looked up): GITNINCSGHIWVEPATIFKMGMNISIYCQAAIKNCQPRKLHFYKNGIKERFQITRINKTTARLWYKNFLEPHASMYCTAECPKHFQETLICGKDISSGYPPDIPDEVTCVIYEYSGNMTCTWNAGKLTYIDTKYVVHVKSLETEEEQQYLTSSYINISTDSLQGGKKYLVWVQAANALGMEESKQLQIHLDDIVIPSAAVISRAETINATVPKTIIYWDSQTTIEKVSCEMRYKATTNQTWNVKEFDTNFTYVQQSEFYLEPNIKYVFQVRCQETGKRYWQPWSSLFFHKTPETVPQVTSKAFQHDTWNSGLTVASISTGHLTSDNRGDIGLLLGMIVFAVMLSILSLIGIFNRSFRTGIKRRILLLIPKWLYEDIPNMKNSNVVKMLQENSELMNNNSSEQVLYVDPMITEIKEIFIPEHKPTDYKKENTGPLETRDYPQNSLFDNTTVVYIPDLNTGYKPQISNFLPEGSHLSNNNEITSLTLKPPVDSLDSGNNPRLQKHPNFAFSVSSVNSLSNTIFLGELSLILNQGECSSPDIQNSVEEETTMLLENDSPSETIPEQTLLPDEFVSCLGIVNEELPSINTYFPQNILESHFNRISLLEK
Experiment: cell-based or functional assay
*1 amine or outer side, *2 acyl side, *3 side chain or, on linkers, in order; H or OH if unused. Bridges are numbered along the chain shown (N, C = ends). Primed or numbered codes have the meaning given here. Where no end group is shown, it is not given here. [ ]: non-standard residue; d: D form. 4‑Aminomethyl‑phenylacetyl = 4-aminomethyl-phenylacetyl unit, its amine closes the lactam, O=C(Cc1ccc(CN[*:1])cc1)[*:2]; 1,3‑dibromopropan‑2‑one = linker (CAS 816-39-7) joining two Cys as 1,3-dithio-propan-2-one bridge -SCH2C(=O)CH2S-; 1,3‑dibromopropan‑2‑one(3) = linker giving 1,3-dithio-propan-2-one bridge -SCH2C(=O)CH2S- between Cys; 4‑Aminomethyl‑phenylacetyl″ = N-terminal cap residue, O=C(Cc1ccc(CN[*:1])cc1)[*:2]; Trp(6-F) = N[C@@H](Cc1c[nH]c2cc(F)ccc12)C(=O)O; Bip = N[C@@H](Cc1ccc(-c2ccccc2)cc1)C(=O)O; 2Nal = N[C@@H](Cc1ccc2ccccc2c1)C(=O)O; AEF = NCCOc1ccc(C[C@H](N)C(=O)O)cc1; 3Pal = N[C@@H](Cc1cccnc1)C(=O)O; 4Pal = N[C@@H](Cc1ccncc1)C(=O)O; αMeL = CC(C)C[C@](C)(N)C(=O)O; CH2COCH2 = O=C(C[*:1])C[*:2]; αMeK = C[C@](N)(CCCCN)C(=O)O; 3Amb = NCc1cccc(C(=O)O)c1; Dab = NCC[C@H](N)C(=O)O; Abu = CC[C@H](N)C(=O)O
reported endpoint: IC50 (pSTAT3)

binder	reported measurement
Ac-DESCWQCWWLK-NH2 (lactam 2-11; linker 4-7 via 1,3‑dibromopropan‑2‑one) [Compound 11]	> 1 µM
Ac-DKSCWQCW[2Nal]LER-NH2 (lactam 2-11; bridge 4-7; not fully specified (bridges); printed as [Ac]-DK(1c)SC(2d)WQC(2d)W[2-Nal]LE(1c)R-[NH2]) [Compound 20]	79.2 nM
Ac-[Abu]QTWQC[AEF]W[αMeK]ENG-NH2 (thioether 1-6) [Compound C]	13.8 nM
Ac-KSC[2Nal]QCW[2Nal]LER-NH2 (lactam 1-10; linker 3-6 via CH2COCH2; SMILES CC(=O)N[C@H]1CCCCNC(=O)CC[C@@H](C(=O)N[C@@H](CCCNC(=N)N)C(N)=O)NC(=O)[C@H](CC(C)C)NC(=O)[C@H](Cc2ccc3ccccc3c2)NC(=O)[C@H](Cc2c[nH]c3ccccc23)NC(=O)[C@@H]2CSCC(=O)CSC[C@H](NC(=O)[C@H](CO)NC1=O)C(=O)N[C@@H](Cc1ccc3ccccc3c1)C(=O)N[C@@H](CCC(N)=O)C(=O)N2) [Compound 25]	> 1 µM
Ac-KSC[Bip]QCW[2Nal]LER-NH2 (lactam 1-10; linker 3-6 via CH2COCH2; SMILES CC(=O)N[C@H]1CCCCNC(=O)CC[C@@H](C(=O)N[C@@H](CCCNC(=N)N)C(N)=O)NC(=O)[C@H](CC(C)C)NC(=O)[C@H](Cc2ccc3ccccc3c2)NC(=O)[C@H](Cc2c[nH]c3ccccc23)NC(=O)[C@@H]2CSCC(=O)CSC[C@H](NC(=O)[C@H](CO)NC1=O)C(=O)N[C@@H](Cc1ccc(-c3ccccc3)cc1)C(=O)N[C@@H](CCC(N)=O)C(=O)N2) [Compound 26]	> 1 µM
[4‑Aminomethyl‑phenylacetyl″]SEWQ[Dab][AEF][2Nal][αMeL]E[Dab][3Pal]-NH2 (lactam N-10, 3-6; SMILES CC(C)C[C@]1(C)NC(=O)[C@H](Cc2ccc3ccccc3c2)NC(=O)[C@H](Cc2ccc(OCCN)cc2)NC(=O)[C@@H]2CCNC(=O)CC[C@H](NC(=O)[C@H](CO)NC(=O)Cc3ccc(cc3)CNC(=O)CC[C@@H](C(=O)N[C@@H](CCN)C(=O)N[C@@H](Cc3cccnc3)C(N)=O)NC1=O)C(=O)N[C@@H](Cc1c[nH]c3ccccc13)C(=O)N[C@@H](CCC(N)=O)C(=O)N2) [Compound 122]	27.7 pM
[3Amb]SEWQ[Dab][AEF][2Nal][αMeL]ER-NH2 (lactam (positions not given here); lactam 3-6; not fully specified (bridges)) [Compound 67]	35.3 nM
Ac-DESCWQCW[2Nal][αMeL]KG-NH2 (lactam 2-11; linker 4-7 via CH2COCH2; SMILES CC(=O)N[C@@H](CC(=O)O)C(=O)N[C@H]1CCC(=O)NCCCC[C@@H](C(=O)NCC(N)=O)NC(=O)[C@](C)(CC(C)C)NC(=O)[C@H](Cc2ccc3ccccc3c2)NC(=O)[C@H](Cc2c[nH]c3ccccc23)NC(=O)[C@@H]2CSCC(=O)CSC[C@H](NC(=O)[C@H](CO)NC1=O)C(=O)N[C@@H](Cc1c[nH]c3ccccc13)C(=O)N[C@@H](CCC(N)=O)C(=O)N2) [Compound 60]	666 nM
[4‑Aminomethyl‑phenylacetyl]SCWQC[AEF][Trp(6-F)][αMeL]E[Dab][3Pal]-NH2 (lactam N-10; linker 3-6 via 1,3‑dibromopropan‑2‑one(3)) [Compound 121]	0.367 nM
[3Amb]SCWQC[AEF][2Nal][αMeL]ER[4Pal]-NH2 (lactam (positions not given here); linker 3-6 via CH2COCH2; not fully specified (bridges); printed as [(3-Aminomethyl)benzoyl](1c)*SC(2a)WQC(2a)[Y(2-aminoethoxy)][2-Nal][2-Me-Leu]E(1c)R[3-(4-Pyridyl)-Ala]-[NH2]) [Compound 79]	21.3 nM
Ac-KTCWQC[AEF][2Nal][αMeL]E[Dab][3Pal]-NH2 (lactam 1-10; linker 3-6 via 1,3‑dibromopropan‑2‑one(3)) [Compound 155]	30.5 pM
